The measurements presented in this section are drawn from ChEMBL document CHEMBL3425449.

assay: Solubility of the compound at pH 7; assay type: physicochemical; conditions: buffer, read-out: solubility
test readout: solubility (µM)

>  <smiles text>
COC(=O)c1ccccc1C(=O)N1C[C@H](Oc2cc(C#N)ccn2)CC[C@H]1C

>  <solubility, µM>
151

$$$$
>  <smiles text>
C[C@@H]1CC[C@@H](Oc2cc(C#N)ccn2)CN1C(=O)c1ccccc1-n1nccn1

>  <solubility, µM>
148

$$$$
>  <smiles text>
C[C@@H]1CC[C@@H](Oc2cc(C#N)ccn2)CN1C(=O)c1ccccc1CC(F)(F)F

>  <solubility, µM>
95

$$$$

P: CC(C)OC(=O)c1ccccc1C(=O)N1C[C@H](Oc2cc(C#N)ccn2)CC[C@H]1C
Q: C[C@@H]1CC[C@@H](Oc2cc(C#N)ccn2)CN1C(=O)c1ccccc1-c1ncccn1
Endpoint returns whichever of P and Q has the numerically higher solubility. Please identify the chosen entry by its label.
Q
(Q: 183 µM, P: 115 µM)

----------
tested on: P-gp; experiment: Substrate activity at human P-gp assessed as efflux ratio in cell based assay; type: ADME; settings: not told
test readout: efflux ratio
Answer field: number only, no words.

Short answer for C[C@@H]1CC[C@@H](Oc2cc(C#N)ccn2)CN1C(=O)c1ccccc1-c1ncccn1 : efflux ratio was 0.7

----------
tested on: P-gp; experiment: Substrate activity at rat P-gp assessed as efflux ratio in cell based assay; assay type: ADME; conditions: not told
test readout: efflux ratio
Answer field: number only, no words.

Short answer for C[C@@H]1CC[C@@H](Oc2cc(C#N)ccn2)CN1C(=O)c1ccccc1-c1ncccn1 : efflux ratio was 2.3

----------
Please consider the recorded pKi for Orexin/Hypocretin receptor type 1 (Homo sapiens) in what follows.
pKi: −log10 of the molar value.
test readout: pKi

Take a look at these entries with their results.
>  <smiles text>
COC(=O)c1ccnc(O[C@@H]2CC[C@@H](C)N(C(=O)c3ccccc3-n3nccn3)C2)c1

>  <assay value>
6.51

$$$$
>  <smiles text>
C[C@@H]1CC[C@@H](Oc2cc(-c3ccccc3)ccn2)CN1C(=O)c1ccccc1-n1nccn1

>  <assay value>
6.44

$$$$
>  <smiles text>
C[C@@H]1CC[C@@H](Oc2cc(C(=O)N(C)C)ccn2)CN1C(=O)c1ccccc1-n1nccn1

>  <assay value>
6.33

$$$$

P: C[C@@H]1CC[C@@H](Oc2cc(F)ccn2)CN1C(=O)c1ccccc1-n1nccn1
Q: C[C@@H]1CC[C@@H](Oc2cc(C#N)ccn2)CN1C(=O)c1ccccc1-n1nccn1
R: Cc1ccc(O[C@@H]2CC[C@@H](C)N(C(=O)c3ccccc3-n3nccn3)C2)nc1
S: C[C@@H]1CC[C@@H](Oc2ccccn2)CN1C(=O)c1ccccc1-n1nccn1
Arrange the 4 compounds from largest to smallest pKi. Put the labels in the order asked and list them.
R, P, Q, S

----------
assay: Intrinsic clearance in human microsomes; type: ADME, Microsome
test readout: CLint scaled (mL/min/kg)

Take a look at these entries with their results.
>  <smiles text>
C[C@@H]1CC[C@@H](Oc2cc(C#N)ccn2)CN1C(=O)c1ccccc1-n1nccn1

>  <CLint scaled, mL/min/kg>
16

$$$$
>  <smiles text>
Cc1nc(-c2ccccc2C(=O)N2C[C@H](Oc3cc(C#N)ccn3)CC[C@H]2C)no1

>  <CLint scaled, mL/min/kg>
23

$$$$
>  <smiles text>
C[C@@H]1CC[C@@H](Oc2cc(C#N)ccn2)CN1C(=O)c1ccccc1OC(F)F

>  <CLint scaled, mL/min/kg>
43

$$$$

A: CCOC(=O)c1ccccc1C(=O)N1C[C@H](Oc2cc(C#N)ccn2)CC[C@H]1C
B: C[C@@H]1CC[C@@H](Oc2cc(C#N)ccn2)CN1C(=O)c1ccccc1-c1ncccn1
C: C[C@@H]1CC[C@@H](Oc2cc(C#N)ccn2)CN1C(=O)c1ccccc1CC(F)(F)F
Please put the entries in order of rising CLint scaled. Put the labels in the order asked and list them.
B, A, C
(B: 17 mL/min/kg, A: 37 mL/min/kg, C: 132 mL/min/kg)
